- System: Venturia inaequalis
- test: Apple scab control on sprayed apple seedlings (Example 82)
- Format: in vivo
- measurementParameters: Venturia inaequalis, 100 ppm spray, day before inoculation
Use 80% as the dividing line for pest or weed control at 100 ppm, with the line itself on the Met side and lower values as Not met.

Query :: Please check the record CC(n1cncn1)[Si](C)(c1ccc(F)cc1)c1ccc(F)cc1 (stereo not drawn) and state if its pest or weed control at 100 ppm is at or above 80%.
Result :: Met

New cases:
Query :: Exam item: decide whether the reported pest or weed control at 100 ppm for COc1cccc(OC)c1[Si](C)(C)Cn1cncn1 is at least 80%.
Result :: Not met

Query :: I'd appreciate it if you could say whether C[Si](Cn1cncn1)(c1ccccc1Cl)c1ccccc1Cl has pest or weed control at 100 ppm at least equal to 80%.
Result :: Not met

Query :: Determine whether this compound has pest or weed control at 100 ppm no lower than 80%: C[Si](Cn1cncn1)(c1ccccc1)c1ccccc1Cl (stereo not drawn)
Result :: Met

* * *

- System: Monilinia fructicola
- test: Stone fruit brown rot control on dipped canned peach halves (Example 86)
- measurementParameters: 120 h, 100 ppm dip, percent growth inhibition of colonies after five days
measurementKind: inhibition of growth at 100 µg/mL (%)
Numbers only, in %.

Check out these entries, answers already filled in.
Query :: Request the reported inhibition of growth at 100 µg/mL associated with C[Si](Cn1cncn1)(c1ccc(F)cc1)c1ccc(F)cc1
Result :: 100

Query :: Form field: reported inhibition of growth at 100 µg/mL of C[Si](Cn1cncn1)(c1ccccc1)c1ccc(Cl)cc1 (stereo not drawn)
Result :: 70

Query :: What value of inhibition of growth at 100 µg/mL has been recorded for this entry: CCCC[Si](C)(Cn1cncn1)c1ccc(Cl)cc1 (stereo not drawn)
Result :: 98

Query :: Using the record for C[Si](Cn1cncn1)(c1ccccc1)c1ccc(F)cc1 (stereo not drawn) , report its inhibition of growth at 100 µg/mL.
Result :: 90

Query :: I am curious: what inhibition of growth at 100 µg/mL value has been reported for C[Si](C)(Cn1cncn1)c1ccccc1 ?
Result :: 89

The following compounds each have a reported value; give each one's inhibition of growth at 100 µg/mL.
1. C[Si](C)(Cn1cnnc1)c1ccc(-c2ccccc2)cc1
2. CCCC[Si](C)(Cn1cncn1)c1ccc(-c2ccccc2)cc1 (stereo not drawn)
3. C[Si](C)(Cn1cncn1)c1ccc(-c2ccccc2)cc1
4. CCCC[Si](C)(CCCC)Cn1cncn1

Result ::
96
0
100
81

* * *

- Tested on: Venturia inaequalis
- test: Apple scab control on sprayed apple seedlings (Example 82)
- Format: in vivo
- measurementParameters: Venturia inaequalis, 100 ppm spray, day before inoculation
measurementKind: pest or weed control at 100 ppm (%)
One number for each entry, in %.

Consider the reported pest or weed control at 100 ppm for these molecules:
Query :: I'm curious: which pest or weed control at 100 ppm was measured for CSc1ccc([Si](C)(C)Cn2cncn2)cc1 tested on Venturia inaequalis?
Result :: 60

Query :: Under Venturia inaequalis: pest or weed control at 100 ppm value of CCCCCCCCCCCCCCCCCC[Si](C)(C)Cn1cncn1 ?
Result :: 60

Query :: Request body: readout pest or weed control at 100 ppm, system Venturia inaequalis, query C[Si](Cn1cncn1)(c1ccccc1)c1ccc(Cl)cc1 (stereo not shown) . Return the value.
Result :: 100

New cases:
Query :: Hi! What's the reported pest or weed control at 100 ppm for COc1ccc([Si](C)(Cn2cncn2)c2ccc(OC)cc2)cc1 on Venturia inaequalis?
Result :: 0

The values you see were collected from patent US4510136A.
